IC50 values for the compounds below.
target: human DPP1 enzyme (Homo sapiens); experiment: Human DPP1 Enzyme IC50 Assay; format: biochemical; design: was first proteolytically processed into its mature form using recombinant human cathepsin L; purchased R&D Systems; conditions: activated recombinant human DPP1, 400 μM H-Gly-Arg-AMC, 10 minutes pre-incubation at 37° C., pH 6.0; average of n runs; read-out: Avg. IC50 (Human DPP1 enzyme IC50 value ranges)
Sequence (P53634 25-134 limits assumed): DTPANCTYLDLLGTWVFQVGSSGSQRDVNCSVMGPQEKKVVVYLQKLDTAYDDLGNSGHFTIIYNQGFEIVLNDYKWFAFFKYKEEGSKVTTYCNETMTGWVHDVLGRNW
Sequence (P53634 231-394 limits assumed): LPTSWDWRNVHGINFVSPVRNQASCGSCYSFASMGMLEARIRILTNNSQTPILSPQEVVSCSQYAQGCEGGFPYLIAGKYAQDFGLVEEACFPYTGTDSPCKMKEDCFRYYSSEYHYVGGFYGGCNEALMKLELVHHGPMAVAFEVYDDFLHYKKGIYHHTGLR
Sequence (P53634 395-463 limits assumed): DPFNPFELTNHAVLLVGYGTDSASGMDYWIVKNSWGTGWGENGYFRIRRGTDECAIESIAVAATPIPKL

N#Cc1ccc(-c2ccc(C[C@@H](C#N)NC(=O)[C@@H]3CNCCCO3)cc2)cc1C(F)(F)F [Compound 7] = > 0.015 µM

[Q] Which IC50 value belongs to CCN1C(=O)Cc2ccc(-c3ccc(C[C@@H](C#N)NC(=O)[C@@H]4CN[C@@H](C)[C@@H](O)CO4)c(F)c3)cc21 [Compound G10] ?
[A] 0.005 to 0.015 µM

[Q] Moving on to CO[C@@H]1CCNC[C@@H](C(=O)N[C@H](C#N)Cc2ncc(-c3ccc4c(n3)CCCN4)s2)OC1 [Compound A37]
[A] > 0.015 µM

[Q] Moving on to Cn1c(=O)oc2cc3c(cc21)-c1cc(F)c(C[C@H](C#N)NC(=O)[C@@H]2CNCCCO2)cc1OC3 [Compound C1-A]
[A] > 0.015 µM

[Q] Moving on to Cn1c(=O)oc2ccc3c(c21)COc1cc(CC(C#N)NC(=O)[C@@H]2CNCCCO2)c(F)cc1-3 (stereo partly shown) [Compound C29]
[A] > 0.015 µM

[Q] Moving on to N#C[C@H](Cc1ccc(-c2ccc3c(n2)CCCN3)cc1)NC(=O)[C@@H]1CNCCCO1 [Compound A10]
[A] > 0.015 µM

[Q] Moving on to N#Cc1ccc(C23CC(C[C@@H](C#N)NC(=O)[C@@H]4CNCCCO4)(C2)C3)cc1 [Compound 2]
[A] > 0.015 µM

[Q] Moving on to N#C[C@H](Cc1ccc(-c2ccc3c(c2)CCCS3)cc1)NC(=O)[C@@H]1CNCCCO1 [Compound A5]
[A] > 0.015 µM

====

Target: human DPP1 enzyme (Homo sapiens)
Test: Human DPP1 Enzyme Single-Point Percent Inhibition Testing (HL-60 lysate)
Assay type: biochemical
Set-up: A crude lysate of HL-60 cells (ATCC; Manassas, VA) was used as a source of human DPP1 enzyme; host or cells: HL-60 cells (crude lysate)
Conditions: final compound concentration of 10 nM, 400 μM H-Gly-Arg-AMC, n = 1
Experimental: Example 98. Human DPP1 Enzyme Single-Point Percent Inhibition Testing A crude lysate of HL-60 cells (ATCC; Manassas, VA) was used as a source of human DPP1 enzyme in the assay. […] Substrate cleavage was measured for 90 minutes at 37° C., with fluorescence at Excitation/Emission 350/450 nm measured every 5 minutes. […] Percent inhibition at 10 nM was calculated for each test article based on remaining DPP1 activity compared to enzyme activity in wells that received only vehicle control.
Sequence (P53634 25-463): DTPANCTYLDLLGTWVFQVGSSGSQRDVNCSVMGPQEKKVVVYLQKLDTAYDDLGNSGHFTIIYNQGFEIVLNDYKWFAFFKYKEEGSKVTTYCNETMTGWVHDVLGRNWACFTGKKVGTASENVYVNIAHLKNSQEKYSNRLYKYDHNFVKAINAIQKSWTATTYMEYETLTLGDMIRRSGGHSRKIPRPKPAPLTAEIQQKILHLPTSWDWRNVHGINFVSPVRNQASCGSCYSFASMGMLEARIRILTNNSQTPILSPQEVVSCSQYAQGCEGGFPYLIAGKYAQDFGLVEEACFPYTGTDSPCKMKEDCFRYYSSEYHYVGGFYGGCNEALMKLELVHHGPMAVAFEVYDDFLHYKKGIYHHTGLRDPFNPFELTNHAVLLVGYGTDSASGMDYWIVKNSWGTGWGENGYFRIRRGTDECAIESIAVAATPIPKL
inhibition at 0.01 µM values for the compounds below.

# count of solved cases: 2
CO[C@@H]1CCNC[C@@H](C(=O)N[C@H](C#N)Cc2ccc(-c3ccc(CN4CCN(C)CC4)cc3)cc2F)OC1 = ≥ 66.7%
COC1CNC[C@@H](C(=O)N[C@H](C#N)Cc2ccc(-c3ccc4cnn(C)c4c3)cc2)OC1 (stereo partly drawn) = ≥ 66.7%

Now for the compound whose inhibition at 0.01 µM we want.
[Q] Which inhibition at 0.01 µM value belongs to `N#C[C@H](Cc1ccc(-c2ccc3c(c2)C2(CCN(C4COC4)CC2)OC3)cc1)NC(=O)[C@@H]1CNCCCCO1` ?
[A] ≤ 40%
